target-or-system: SOS1/KRAS WT (Homo sapiens (Human), UniProt Q07889)
Sequence (Q07889 564-1049): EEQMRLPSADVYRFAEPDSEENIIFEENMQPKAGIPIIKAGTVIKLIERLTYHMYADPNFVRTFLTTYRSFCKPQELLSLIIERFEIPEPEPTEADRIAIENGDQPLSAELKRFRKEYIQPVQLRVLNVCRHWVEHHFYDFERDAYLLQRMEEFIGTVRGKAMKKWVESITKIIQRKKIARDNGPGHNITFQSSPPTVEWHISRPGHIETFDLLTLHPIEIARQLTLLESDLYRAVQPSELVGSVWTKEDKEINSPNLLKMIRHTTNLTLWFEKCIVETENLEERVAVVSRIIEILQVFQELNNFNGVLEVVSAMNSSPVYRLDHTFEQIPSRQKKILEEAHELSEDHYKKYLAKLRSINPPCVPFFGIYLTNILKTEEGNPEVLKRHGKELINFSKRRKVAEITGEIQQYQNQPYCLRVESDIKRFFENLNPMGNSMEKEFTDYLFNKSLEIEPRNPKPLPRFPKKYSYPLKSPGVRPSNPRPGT
measurement-protocol: SOS1/KRAS WT HTRF binding assay (FRET-based protein-protein interaction)
conditions: inhibition of His6-SOS1 (aa564-1049, 40 nM) binding to GST-KRAS-WT (aa1-188, 40 nM); at least two independent replicates; read-out: SOS1/KRAS WT HTRF Binding assay pIC50 (converted)
reported-property: IC50 (nM)

Would you please look over these solved cases?
Cc1nnc(N[C@H](C)c2cccc(C(F)F)c2F)c2cc3c(cc12)C(C)(C)C(=O)N3C : 8.71
CCC1(OC)C(=O)N(C)c2cc3c(N[C@H](C)c4cccc(C(F)(F)C(C)(C)O)c4)nnc(C)c3cc21 (some centres unmarked) : 10.7

P: CCOC1(C)C(=O)N(C2CC2)c2cc3c(N[C@H](C)c4cccc(C(F)(F)C(C)(C)O)c4C)nnc(C)c3cc21 (some centres unmarked)
Q: COC1(C)C(=O)N(C)c2cc3c(N[C@H](C)c4cccc(C(F)(F)CO)c4C)nnc(C)c3cc21 (some centres unmarked)
-- ask Which of the two items, P and Q , has the greater recorded IC50? Pick one; state its label.
-- reply P

A: COC1(C)C(=O)N(C2CC2)c2cc3c(N[C@H](C)c4cccc(C(F)(F)CO)c4)nnc(C)c3cc21 (some centres unmarked)
B: Cc1nnc(N[C@H](C)c2cccc(C(F)(F)F)n2)c2cc3c(cc12)n(C)c(=O)n3C
-- ask Between item A and item B , which reported IC50 is smaller? Pick one; state its label.
-- reply A
